Reference for the values: patent US20140213531A1

target: Thrombin, from Human Plasma, high activity (human, UniProt P00734 328-622); test: enzyme inhibition, pNA substrate
Bridges are numbered along the chain shown (N, C = ends). Primed or numbered codes have the meaning given here. [ ]: non-standard residue; d: D form. Pro(4NHCOPhe)″ = 4-benzamido-L-proline, (2S)-4-benzoylamino-pyrrolidine-2-carboxylic acid; Nle = CCCC[C@H](N)C(=O)O
Reported Property: % inhibition at 100 µM (%)
Field format: number, assumed %, no unit text.

>  <Binder>
cyclo([Nle]CTASIP[Pro(4NHCOPhe)″]QCY[dP]P) (disulfide 2-10) [Example 138]

>  <Reported Property>
% inhibition at 100 µM

>  <Value Reported>
17.1

$$$$
>  <Binder>
XCTASIPPQCY (HELM PEPTIDE1{[Nle].C.T.A.S.I.P.P.Q.C.Y.[dP].F}$PEPTIDE1,PEPTIDE1,2:R3-10:R3|PEPTIDE1,PEPTIDE1,1:R1-13:R2$$$V2.0; SMILES CCCC[C@@H]1NC(=O)[C@H](Cc2ccccc2)NC(=O)[C@H]2CCCN2C(=O)[C@H](Cc2ccc(O)cc2)NC(=O)[C@@H]2CSSC[C@H](NC1=O)C(=O)N[C@@H]([C@@H](C)O)C(=O)N[C@@H](C)C(=O)N[C@@H](CO)C(=O)N[C@@H]([C@@H](C)CC)C(=O)N1CCC[C@H]1C(=O)N1CCC[C@H]1C(=O)N[C@@H](CCC(N)=O)C(=O)N2) [Example 122]

>  <Reported Property>
% inhibition at 100 µM

>  <Value Reported>
0

$$$$

Alright, here's another binder for you.
[in] Reported % inhibition at 100 µM, binder XCTASIPPQCY (HELM PEPTIDE1{[Nle].C.T.A.S.I.P.P.Q.C.Y.[dP].D}$PEPTIDE1,PEPTIDE1,2:R3-10:R3|PEPTIDE1,PEPTIDE1,1:R1-13:R2$$$V2.0; SMILES CCCC[C@@H]1NC(=O)[C@H](CC(=O)O)NC(=O)[C@H]2CCCN2C(=O)[C@H](Cc2ccc(O)cc2)NC(=O)[C@@H]2CSSC[C@H](NC1=O)C(=O)N[C@@H]([C@@H](C)O)C(=O)N[C@@H](C)C(=O)N[C@@H](CO)C(=O)N[C@@H]([C@@H](C)CC)C(=O)N1CCC[C@H]1C(=O)N1CCC[C@H]1C(=O)N[C@@H](CCC(N)=O)C(=O)N2) [Example 121] : ____
[out] 0
